Please respond with reported ratio to parent for every item in the list.
B1: Flag-CNK^2–549 [Drosophila] / Myc-MEK [Drosophila] (parent)
chain 1: MSKNKLNLVLPPVNTEATVAAATVAPTPPFKTPSGTDTHSLLGKPKTSIDALTETLEGLDMGDTERKRIKMFLSQKEKIGELSDEDLEKLGELGSGNGGVVMKVRHTHTHLIMARKLIHLEVKPAIKKQILRELKVLHECNFPHIVGFYGAFYSDGEISICMEYMDGGSLDLILKRAGRIPESILGRITLAVLKGLSYLRDNHAIIHRDVKPSNILVNSSGEIKICDFGVSGQLIDSMANSFVGTRSYMSPERLQGTHYSVQSDIWSLGLSLVEMAIGMYPIPPPNTATLESIFADNAEESGQPTDEPRAMAIFELLDYIVNEPPPKLEHKIFSTEFKDFVDICLKKQPDERADLKTLLSHPWIRKAELEEVDISGWVCKTMDLPPSTPKRNTSPN
chain 2: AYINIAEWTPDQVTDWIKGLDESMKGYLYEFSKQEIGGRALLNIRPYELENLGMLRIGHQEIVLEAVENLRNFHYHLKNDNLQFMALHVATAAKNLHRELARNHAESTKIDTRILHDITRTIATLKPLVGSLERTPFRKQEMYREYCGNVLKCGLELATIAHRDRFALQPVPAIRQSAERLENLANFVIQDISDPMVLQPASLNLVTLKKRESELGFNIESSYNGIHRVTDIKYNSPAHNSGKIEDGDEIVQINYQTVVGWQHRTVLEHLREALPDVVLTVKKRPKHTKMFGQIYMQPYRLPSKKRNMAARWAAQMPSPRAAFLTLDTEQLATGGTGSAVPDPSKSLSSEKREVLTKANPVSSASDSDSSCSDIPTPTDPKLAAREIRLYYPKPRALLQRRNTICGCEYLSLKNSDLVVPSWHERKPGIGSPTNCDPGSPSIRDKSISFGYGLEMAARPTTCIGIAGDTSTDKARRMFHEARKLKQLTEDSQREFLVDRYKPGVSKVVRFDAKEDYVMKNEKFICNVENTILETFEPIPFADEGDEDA

Variants of: B1
Experiment: GST pull-down, immunoblot quantification
Conditions: with Myc-MEK [Drosophila], S2 cells, Flag-CNK2–549, V5-KSR, GST-HYP co-expressed, captured via GST-HYP, anti-Myc (MEK) blot, parent: 1
Numbers only.

{"variant.string": "chain 2 N81E", "measured.parameter": "ratio to parent", "experimental.value": 0.27}

Hey, quick one: what's ratio to parent for each of these?
1. chain 2 R45F
2. chain 2 Y75R
3. chain 2 R98E
4. chain 2 N95E
5. chain 2 N81W
6. chain 2 Q83E

(A)
1: 1.01; 2: 0.68; 3: 1.12; 4: 0.94; 5: 0.05; 6: 0.04
